assay-protocol: Half life to evaluate susceptibility to enzymatic hydrolysis by incubating at 37 degree C in human plasma
Assay type: ADME
Residues, ends and D or L forms follow the SMILES beside them.
Quick reference for half-life among some compounds

>  <compound>
CC(C)C[C@H](NC(=O)CNC(=O)[C@H](C)NC(=O)[C@H](CC(C)C)NC(=O)[C@@H](N)Cc1ccc(O)cc1)C(=O)N[C@@H](CC(C)C)C(=O)N[C@H](C(=O)N[C@@H](CC[S+](C)[O-])C(=O)N[C@H](C(=O)O)C(C)C)[C@@H](C)O (stereo partly specified) (HELM PEPTIDE1{Y.L.A.G.L.L.T.[CS(=O)CC[C@H](N[*:1])C(=O)[*:2]].V}$$$$V2.0)

>  <comparison-operator>
=

>  <half-life / h>
0.522

$$$$
>  <compound>
CSCC[C@H](NC(=O)[C@@H](NC(=O)[C@H](CC(C)C)NC(=O)[C@H](CC(C)C)NC(=O)CNC(=O)[C@H](C)NC(=O)[C@H](CC(C)C)NC(=O)[C@@H](N)Cc1ccc(O)cc1)[C@@H](C)O)C(=O)N(CC(=O)O)C(C)C (HELM PEPTIDE1{Y.L.A.G.L.L.T.M.[CC(C)N(CC(=O)O)[*:1]]}$$$$V2.0)

>  <comparison-operator>
>

>  <half-life / h>
6

$$$$
>  <compound>
CSCC[C@H](NC(=O)[C@@H](NC(=O)[C@H](CC(C)C)NC(=O)[C@H](CC(C)C)NC(=O)CNC(=O)[C@H](C)NC(=O)[C@H](CC(C)C)NC(=O)[C@@H](N)Cc1ccc(O)cc1)[C@@H](C)O)C(=O)N(C)[C@H](C(=O)O)C(C)C (HELM PEPTIDE1{Y.L.A.G.L.L.T.M.[meV]}$$$$V2.0)

>  <comparison-operator>
>

>  <half-life / h>
6

$$$$
>  <compound>
CSCC[C@H](NC(=O)[C@@H](NC(=O)[C@H](CC(C)C)NC(=O)[C@H](CC(C)C)NC(=O)CNC(=O)[C@H](C)NC(=O)[C@H](CC(C)C)NC(=O)[C@@H](N)Cc1ccc(O)cc1)[C@@H](C)O)C(=O)N[C@H](CO)C(C)C (HELM PEPTIDE1{Y.L.A.G.L.L.T.M.[CC(C)[C@@H](CO)N[*:1]]}$$$$V2.0)

>  <comparison-operator>
=

>  <half-life / h>
1.66

$$$$
>  <compound>
CSCC[C@@H](CN[C@H](C(=O)O)C(C)C)NC(=O)[C@@H](NC(=O)[C@H](CC(C)C)NC(=O)[C@H](CC(C)C)NC(=O)CNC(=O)[C@H](C)NC(=O)[C@H](CC(C)C)NC(=O)[C@@H](N)Cc1ccc(O)cc1)[C@@H](C)O (HELM PEPTIDE1{Y.L.A.G.L.L.T.[CSCC[C@@H](CN[C@H](C(=O)O)C(C)C)N[*:1]]}$$$$V2.0)

>  <comparison-operator>
=

>  <half-life / h>
5.07

$$$$
>  <compound>
CSCCN(CC(=O)N[C@H](C(=O)O)C(C)C)C(=O)[C@@H](NC(=O)[C@H](CC(C)C)NC(=O)[C@H](CC(C)C)NC(=O)CNC(=O)[C@H](C)NC(=O)[C@H](CC(C)C)NC(=O)[C@@H](N)Cc1ccc(O)cc1)[C@@H](C)O (HELM PEPTIDE1{Y.L.A.G.L.L.T.[CSCCN(CC(=O)[*:2])[*:1]].V}$$$$V2.0)

>  <comparison-operator>
=

>  <half-life / h>
0.86

$$$$
